All figures here come from patent US9688661B2.

Readings of pIC50 for the listed compounds
target.or.test.system: JAK2 kinase domain (Homo sapiens (Human))
Sequence (O60674 849-1124): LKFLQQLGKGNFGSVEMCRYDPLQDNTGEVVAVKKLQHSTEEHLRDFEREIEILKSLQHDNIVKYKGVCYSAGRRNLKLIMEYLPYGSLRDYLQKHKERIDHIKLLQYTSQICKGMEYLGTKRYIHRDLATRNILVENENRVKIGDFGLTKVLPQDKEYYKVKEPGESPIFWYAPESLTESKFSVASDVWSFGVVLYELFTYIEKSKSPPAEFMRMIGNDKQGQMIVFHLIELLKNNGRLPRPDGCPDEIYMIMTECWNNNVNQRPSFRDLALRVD
Here pIC50 is given on a logarithmic scale as minus log10 of the concentration in mol/L.

Field: example entries. Status: answers known.
• Cc1ccc(Cl)cc1-c1[nH]c(-c2ccnc3[nH]ccc23)cc1C(N)=O = 7.89
• CNC(=O)c1[nH]c(-c2ncnc3[nH]ccc23)cc1-c1cc(Cl)ccc1C = 8.05
• CCc1ccc(Cl)cc1-c1[nH]c(-c2ncnc3[nH]ccc23)cc1C(=O)NC = 9.00
• CCc1ccc(Cl)cc1-n1cc(-c2ncnc3[nH]ccc23)cc1C(N)=O = 9.00
• CCc1ccc(C(F)(F)F)cc1-c1cc(-c2ncnc3[nH]ccc23)[nH]c1C(N)=O = 8.22

Supply pIC50 measured with JAK2 kinase domain (Homo sapiens (Human)) for CNc1cc(-c2cc(C(N)=O)c(-c3cc(C(F)(F)F)ccc3Cl)[nH]2)ncn1 . 7.72

Supply pIC50 measured with JAK2 kinase domain (Homo sapiens (Human)) for CCc1ccc(Cl)cc1-c1[nH]c(-c2cc(N)ncn2)cc1C(N)=O . 9.00

Supply pIC50 measured with JAK2 kinase domain (Homo sapiens (Human)) for CCc1ccc(C(F)(F)F)cc1-c1cc(-c2ncnc3[nH]ccc23)[nH]c1C(=O)NC . 8.05

Supply pIC50 measured with JAK2 kinase domain (Homo sapiens (Human)) for NC(=O)c1cc(-c2ncnc3[nH]cnc23)cn1-c1cc(C(F)(F)F)ccc1Cl . 7.57

Supply pIC50 measured with JAK2 kinase domain (Homo sapiens (Human)) for CCc1ccc(Cl)cc1-c1[nH]c(-c2cc(N)ncn2)cc1C(=O)NC . 8.30

Supply pIC50 measured with JAK2 kinase domain (Homo sapiens (Human)) for CCc1ccc(C(F)(F)F)cc1-c1[nH]c(-c2cc(NC)ncn2)cc1C(=O)NC . 8.40

Supply pIC50 measured with JAK2 kinase domain (Homo sapiens (Human)) for CCc1ccc(Cl)cc1-c1cc(-c2ncnc3[nH]ccc23)[nH]c1C(N)=O . 8.40

Supply pIC50 measured with JAK2 kinase domain (Homo sapiens (Human)) for Cc1ccc(Cl)cc1-n1cc(-c2ncnc3[nH]ncc23)cc1C(N)=O . 7.48

Supply pIC50 measured with JAK2 kinase domain (Homo sapiens (Human)) for CCc1ccc(C(F)(F)F)cc1-c1[nH]c(-c2cc(N)ncn2)cc1C(N)=O . 8.40

Supply pIC50 measured with JAK2 kinase domain (Homo sapiens (Human)) for CCc1ccc(Cl)cc1-n1cc(-c2ncnc3c2CCN3)cc1C(N)=O . 8.30

---

System: IL-2 dependent human T lymphoma cell line DERL-7
protocol.text: Cell proliferation assay, DERL-7
Assay type: cell-based
experimental.setup: DERL-7 cells, 20 ng/ml human IL-2, 72 hours, CellTiter-Glo; read-out: DERL7 IC50
Procedure: the JAK2 dependent human megakaryoblastic leukemia cell line SET-2 (DSMZ, Braunschweig GERMANY), and JAK2 independent human chronic myelogenous leukaemia cell line K562 (ECACC, Wiltshire, UK) were cultured in RPMI-1640 medium-Glutamax (Gibco BRL, Gaithesburg, Md., USA), supplemented with 10% fetal bovine serum (FBS) at 37° C. and 5% CO2. […]
readout.label: pIC50
Here pIC50 is given on a logarithmic scale as minus log10 of the concentration in mol/L.

Supply pIC50 measured with IL-2 dependent human T lymphoma cell line DERL-7 for CCc1ccc(Cl)cc1-c1[nH]c(-c2cc(NC)ncn2)cc1C#N . 6.11
